Hello, the source for this data is patent US20100216761A1, in case you need it.

Reported clearance values for a set of compounds
test-protocol: Rat pharmacokinetics
Assay type: in vivo, Sprague-Dawley rats
study-conditions: Sprague-Dawley, in vivo, iv, 1 mg/kg
Description: As exemplified in Table 7, the in vivo pharmacokinetic profiles for Examples 1 and 3 and the comparator Compound #290 were determined in the rat at the standard screening doses of 1 mpk i.v. and 2 mpk p.o. (Note 10). Compounds were formulated as their mono-L-malic acid salts at 1 mg/mL in PEG-200:water 70:30 (v:v) and administered to Sprague-Dawley rats (n=2 for i.v. and n=3 for p.o. arms) at a dose of 1 mg/kg i.v. or 2 mgk p.o. (free base equivalent). […]

- compound: "CCC[C@@H](NC(=O)N1C(=O)C(CC)(CC)[C@@H]1Oc1ccc(C(=O)N(CC)CCN(C)C)cc1)c1ccc(OC(F)(F)F)cc1"
  clearance (mL/min/kg): 42
- compound: "CCC[C@@H](NC(=O)N1C(=O)C(CC)(CC)[C@@H]1Oc1ccc(C(=O)N(C)CCN(C)C)cc1)c1ccc(OC)cc1 [Compound #290, reference compound]"
  clearance (mL/min/kg): 114
- compound: "CCC[C@@H](NC(=O)N1C(=O)C(CC)(CC)[C@@H]1Oc1ccc(C(=O)N(CC)CCN(C)C)cc1)c1ccc(C(F)(F)F)cc1"
  clearance (mL/min/kg): 113

---

system-tested: Human Leukocyte Elastase (HLE) (Homo sapiens, UniProt P08246)
Construct: The PMN lysates were prepared by isolating human neutrophils from whole blood; from tissue; host or cells: human neutrophils (PMN) isolated from whole blood, lysed by sonication in PBS
Sequence (P08246 30-267): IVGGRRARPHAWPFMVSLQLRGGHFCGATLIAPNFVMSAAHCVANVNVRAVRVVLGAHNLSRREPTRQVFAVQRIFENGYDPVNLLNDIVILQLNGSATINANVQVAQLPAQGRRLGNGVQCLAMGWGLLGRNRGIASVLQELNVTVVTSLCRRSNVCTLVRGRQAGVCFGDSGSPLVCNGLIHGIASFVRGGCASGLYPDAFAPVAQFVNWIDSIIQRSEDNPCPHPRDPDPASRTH
test-protocol: HLE time-dependent inactivation assay, purified elastase
Assay type: biochemical
study-conditions: purified elastase 3 nM; inhibitor 26.5 nM; substrate 1 mM
Reported kinact/KI values for a set of compounds
property-name: kinact/KI (M⁻¹ s⁻¹)

- compound: "CCC[C@@H](NC(=O)N1C(=O)C(CC)(CC)[C@@H]1Oc1ccc(C(=O)N(C)CCN(C)C)cc1)c1ccc(OC)cc1 [Compound #290, reference compound]"
  property-name: "kinact/KI"
  numeric-result: 523000
- compound: "CCC[C@@H](NC(=O)N1C(=O)C(CC)(CC)[C@@H]1Oc1ccc(C(=O)N(CC)CCN(C)C)cc1)c1ccc(OC(F)(F)F)cc1 [Example 1]"
  property-name: "kinact/KI"
  numeric-result: 638000
- compound: "CCC[C@@H](NC(=O)N1C(=O)C(CC)(CC)[C@@H]1Oc1ccc(C(=O)N(CC)CCN(C)C)cc1)c1ccc(C(F)(F)F)cc1 [Example 3]"
  property-name: "kinact/KI"
  numeric-result: 804000
- compound: "CCC[C@@H](NC(=O)N1C(=O)C(CC)(CC)[C@@H]1Oc1ccc(C(=O)N(C)CCN(C)C)cc1)c1ccc(C(F)(F)F)cc1 [Example 4]"
  property-name: "kinact/KI"
  numeric-result: 290000
